Data origin: patent US20120171209A1

- assayed.system: T1, human soluble IL-6R, recombinant (human, UniProt P08887 20-358)
- T1 construct: also called human IL6-R; bio-IL-6R
- T1 sequence (looked up): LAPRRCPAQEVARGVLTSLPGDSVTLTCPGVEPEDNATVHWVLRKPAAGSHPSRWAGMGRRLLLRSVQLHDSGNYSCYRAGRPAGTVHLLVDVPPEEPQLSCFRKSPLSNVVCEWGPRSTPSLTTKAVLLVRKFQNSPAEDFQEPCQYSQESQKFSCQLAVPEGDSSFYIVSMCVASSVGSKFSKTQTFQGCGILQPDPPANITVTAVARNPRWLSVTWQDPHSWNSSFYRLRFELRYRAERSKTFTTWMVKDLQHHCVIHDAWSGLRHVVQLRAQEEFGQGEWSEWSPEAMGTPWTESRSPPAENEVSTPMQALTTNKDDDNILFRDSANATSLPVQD
- assay.protocol: Biacore, periplasmic extract
attribute.measured: koff (s⁻¹)

Some entries whose results are on file:
binder	koff, s⁻¹
IL6RPMP106F7 (VHH, family 6; periplasmic extract) VHH: EVQLVESEGGLVQAGGSLRLSCAASGSIFRINAMGWYRQAPGKQRELVAAAISGGSTNYADFVKGRFTISRDNAKNTVYLQMNSLKPEDTAVYYCNALVVSHNYSDYVPFPDDYWGQGTQVTVSS	0.01
IL6RPMP101A5 (VHH, family 5; periplasmic extract) VHH: EVQLVESGGGLVQAGGSLRLSCTASGRTFSDYDMGWFRQAPGKERECVAIIDTNGDNTLIVGSVKGRFAISSDNAKNTVYLQMNSLLPEDTAVYTCAAGVWSSLRHTAANYWGQGTQVTVSS	0.00027
IL6RPMP101G11 (VHH, family 2; periplasmic extract) VHH: EVQLVESGGGLVQPGGSLRLSCAASASGFTLDYYAIGWFRQAPGKEREGVSCISSTDGSTYYADSVKGRFTISRDNAKNTVYLQMNSLNPEDTGVYTCAAVLTTAQAMGVPTRSYEYDYWGQGTQVTVSS	0.00042
IL6RPMP106D6 (VHH, family 22; periplasmic extract; also called PMP106D06) VHH: EVQLVESGGGLVQAGGSLRLSCAASGFTFDDYAIGWFRQAPGKEREGVSCMISSDGSTYYADSVKGRFTISSDNAKNTVYLQMDSLKPEDTAVYYCAADLSLYGCYVGDRDLYDYDYWGQGTQVTVSS	0.001
IL6RPMP105H10 (VHH, family 3; periplasmic extract) VHH: EVQMVESGGGLVQAGGSLRLSCAASGFAFDDYAIGWFRQAPGKEREGVSSISSSNGNTYYADSVRGRFTISSDNAKNTVYLQMNSLKPEDAGVYYCAAIWGIFFNEKMPVGAYDYWGQGTQVTVSS	0.01

[I] IL6RPMP107E4 (VHH, periplasmic extract) VHH: EVQLVESGGGLVQAGGSLRLSCAASGSIDRINAMGWYRQAPGKQRDFLAVITDGDKTLYADSVKGRFTISNDNAKNTVYLQMNSLKPEDTAVYYCNAYQAGWGDYWGQGTQVTVSS
[II] IL6RPMP108E1 (VHH, family 20; also called PMP108E01) VHH: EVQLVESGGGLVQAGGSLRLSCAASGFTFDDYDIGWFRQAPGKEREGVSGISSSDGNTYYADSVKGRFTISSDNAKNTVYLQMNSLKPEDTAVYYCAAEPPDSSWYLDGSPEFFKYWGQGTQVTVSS
[III] IL6RPMP105E1 (VHH, family 7; also called PMP105E01; IL6R105E1) VHH: EVQLVESGGGLVQAGGSLRLSCAASGSIFSIKAMGWYRQAPGKQRELVARITSGGSTYYADSVKGRFTISRDNAKNTVYLQMNSLKPEDTAVFYCNAIVTDSDYDLGNDYWGQGTQVTVSS
QUERY: Returns the items ordered by koff, from maximum to minimum. # respond with the labels, arranged in the requested order
RESULT: I, III, II
